- Measured target: Ba/F3-EGFR wild-type cell line (Homo sapiens)
- Sequence (P00533 whole entry, change not shown): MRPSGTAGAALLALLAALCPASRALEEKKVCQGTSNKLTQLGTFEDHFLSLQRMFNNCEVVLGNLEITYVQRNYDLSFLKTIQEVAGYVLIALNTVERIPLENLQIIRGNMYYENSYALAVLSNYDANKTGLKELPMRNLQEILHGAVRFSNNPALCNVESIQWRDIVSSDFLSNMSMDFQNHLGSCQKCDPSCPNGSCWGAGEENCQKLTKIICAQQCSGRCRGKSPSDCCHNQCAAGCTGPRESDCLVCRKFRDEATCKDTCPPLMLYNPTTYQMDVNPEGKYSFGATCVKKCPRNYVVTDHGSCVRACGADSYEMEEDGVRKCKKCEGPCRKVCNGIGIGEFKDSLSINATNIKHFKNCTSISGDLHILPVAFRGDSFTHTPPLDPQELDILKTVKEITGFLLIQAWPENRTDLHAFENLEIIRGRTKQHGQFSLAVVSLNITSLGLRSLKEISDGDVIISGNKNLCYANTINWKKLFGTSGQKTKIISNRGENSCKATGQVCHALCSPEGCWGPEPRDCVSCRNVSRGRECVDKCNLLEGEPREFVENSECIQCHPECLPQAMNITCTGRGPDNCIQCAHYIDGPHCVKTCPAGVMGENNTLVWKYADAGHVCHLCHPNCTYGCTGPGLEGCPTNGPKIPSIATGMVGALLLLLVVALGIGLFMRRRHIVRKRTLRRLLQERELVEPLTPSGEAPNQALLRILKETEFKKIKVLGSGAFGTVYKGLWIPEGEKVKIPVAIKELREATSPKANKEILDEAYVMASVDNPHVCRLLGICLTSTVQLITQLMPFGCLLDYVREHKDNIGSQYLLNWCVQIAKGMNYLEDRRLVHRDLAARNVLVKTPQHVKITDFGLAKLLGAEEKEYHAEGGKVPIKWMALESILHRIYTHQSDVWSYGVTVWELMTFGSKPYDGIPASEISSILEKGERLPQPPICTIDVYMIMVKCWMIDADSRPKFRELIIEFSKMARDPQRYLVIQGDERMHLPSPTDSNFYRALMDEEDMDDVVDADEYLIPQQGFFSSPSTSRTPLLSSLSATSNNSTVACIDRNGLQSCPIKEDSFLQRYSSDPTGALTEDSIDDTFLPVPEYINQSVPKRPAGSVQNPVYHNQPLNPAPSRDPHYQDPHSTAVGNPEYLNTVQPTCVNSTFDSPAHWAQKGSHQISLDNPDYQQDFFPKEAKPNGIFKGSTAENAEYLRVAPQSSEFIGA
- Procedure text: Ba/F3-EGFR wild-type cell proliferation assay (CellTiter Glo, 72 hours)
- Assay type: cell-based
- Measurement parameters: Table 2, read-out: EGFR WT IC50
Mark T only for GI50 values smaller than 200 nM; exact matches and larger values are F.

{"Compound": "COc1cc(N2CCOCC2)c(C#N)cc1Nc1ncc(Br)c(Nc2ccc(-c3nccs3)cc2P(C)(C)=O)n1 [Compound K-027]", "Assigned category": "F"}
{"Compound": "CCc1cc(Nc2ncc(Br)c(Nc3ccc(-c4cnc(C)c(C)n4)cc3P(C)(C)=O)n2)c(OC)cc1N1CCC(N2CCN(C)CC2)CC1 [Compound K-067]", "Assigned category": "F"}
{"Compound": "CCc1cc(Nc2ncc(Br)c(Nc3ccc(-c4cncc(OC)n4)cc3P(C)(C)=O)n2)c(OC)cc1N1CCC(N2CCN(C)CC2)CC1 [Compound 59]", "Assigned category": "F"}
{"Compound": "CCc1cc(Nc2ncc(Br)c(Nc3ccc(-c4cnn(C(C)C)n4)cc3P(C)(C)=O)n2)c(OC)cc1N1CCC(N2CCN(C)CC2)CC1 [Compound 85]", "Assigned category": "F"}
{"Compound": "COc1cnn(-c2ccc(Nc3nc(Nc4cc(OC)c(N5CCN(C)CC5)cc4C)ncc3Br)c(P(C)(C)=O)c2)c1 [Compound K-028]", "Assigned category": "F"}
{"Compound": "COc1cc(N2CCC(N3CCN(C)CC3)CC2)ccc1Nc1ncc(Cl)c(Nc2ccc(C)cc2P(C)(C)=O)n1 [compound 1, reference compound]", "Assigned category": "F"}
{"Compound": "CCc1cc(Nc2ncc(Br)c(Nc3ccc(-n4cc(C)cn4)cc3P(C)(C)=O)n2)c(OC)cc1N1CCC(N2CCN(C)CC2)CC1 [Compound K-069]", "Assigned category": "F"}
{"Compound": "CCc1cc(Nc2ncc(Br)c(Nc3ccc(-c4nn(C)c5ncccc45)cc3P(C)(C)=O)n2)c(OC)cc1N1CCC(N(C)C)CC1 [Compound K-079]", "Assigned category": "F"}
{"Compound": "COc1cc(Nc2ncc(Br)c(Nc3ccc(-c4cnc(C5CC5)cn4)cc3P(C)(C)=O)n2)c(C)cc1N1CCOCC1 [Compound K-033]", "Assigned category": "T"}
{"Compound": "COc1cc(Nc2ncc(Br)c(Nc3ccc(-c4cnccn4)cc3P(C)(C)=O)n2)c(C)cc1N1CCOCC1 [Compound K-022]", "Assigned category": "F"}
{"Compound": "CCc1cc(Nc2ncc(Br)c(Nc3ccc(-c4cnn(C)c4)c(C)c3P(C)(C)=O)n2)c(OC)cc1N1CCC(N2CCN(C)CC2)CC1 [Compound K-046]", "Assigned category": "T"}
{"Compound": "CCc1cc(Nc2ncc(Br)c(Nc3ccc(-c4cnn(C)n4)cc3P(C)(C)=O)n2)c(OC)cc1N1CCC(N2CCOCC2)CC1 [Compound K-040]", "Assigned category": "F"}
{"Compound": "CCc1cc(Nc2ncc(Br)c(Nc3ccc(-c4nc(Cl)cs4)cc3P(C)(C)=O)n2)c(OC)cc1N1CCC(N2CCN(C)CC2)CC1 [Compound K-073]", "Assigned category": "F"}
{"Compound": "C#Cc1cnc(-c2ccc(Nc3nc(Nc4cc(OC)c(N5CCC(N6CCN(C)CC6)CC5)cc4C)ncc3Br)c(P(C)(C)=O)c2)cn1 [Compound K-014]", "Assigned category": "T"}
{"Compound": "CCc1cc(Nc2ncc(Br)c(Nc3ccc(-c4cnn(C)c4)cc3P(C)(C)=O)n2)c(OC)cc1N1CCC(N2CCCC2)CC1 [Compound K-001]", "Assigned category": "F"}
{"Compound": "COc1cnn(-c2ccc(Nc3nc(Nc4cc(C)c(N5CCC(N6CCCCC6)CC5)cc4OC)ncc3Br)c(P(C)(C)=O)c2)c1 [Compound K-087]", "Assigned category": "F"}
{"Compound": "CCc1cc(Nc2ncc(Br)c(Nc3ccc(-c4ncc(C(C)C)cn4)cc3P(C)(C)=O)n2)c(OC)cc1N1CCC(N2CCN(C)CC2)CC1 [Compound K-056]", "Assigned category": "F"}
{"Compound": "COc1cc(N2CCC(N3CCCCC3)CC2)c(-c2cnn(C)c2)cc1Nc1ncc(Br)c(Nc2ccc(-c3ccccc3)c(C)c2P(C)(C)=O)n1 [Compound K-051]", "Assigned category": "T"}
{"Compound": "CCc1cc(Nc2ncc(Br)c(Nc3ccc(-c4cnc(C5CC5)cn4)cc3P(C)(C)=O)n2)c(OC)cc1N1CCC(N2CCN(C)CC2)CC1 [Compound K-064]", "Assigned category": "T"}
{"Compound": "C#Cc1cnc(-c2ccc(Nc3nc(Nc4cc(CC)c(N5CCC(N6CCN(C)CC6)CC5)cc4OC)ncc3Br)c(P(C)(C)=O)c2)cn1 [Compound K-010]", "Assigned category": "T"}
{"Compound": "COc1cc(Nc2ncc(Br)c(Nc3ccc(-c4cnn(C)c4)cc3P(C)(C)=O)n2)c(C)cc1N1CCOCC1 [Compound K-030]", "Assigned category": "T"}
{"Compound": "CCc1cc(Nc2ncc(Cl)c(Nc3ccc(-c4ncc(OC)cn4)cc3P(C)(C)=O)n2)c(OC)cc1N1CCC(N2CCN(C)CC2)CC1 [Compound 20]", "Assigned category": "F"}
